Assay: small-molecule microarray binders of probe aEGFR, primary screen, biochemical, biotinylated probe, 635/667 nm fluorescence (AID 1097);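 further: probe is a biotinylated anti-EGFR antibody binding compounds printed on slides; score combines fluorescence near 667 nm and signal to noise of each spot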
Condition parameters: higher = more signal
Returns 1 if the recorded composite z-score is greater than or equal to -0.02, and -1 otherwise.

Compound	Category
C[C@H]1CC[C@@H](C(=O)O)N[C@@H]1c1ccc(C#CCN(C)C)cc1	-1
CCOC(=O)[C@H](Cc1ccccc1)NC(=O)CCC1CC(OC(=O)NCc2ccc3c(c2)OCO3)CC2(CCCC(COC(=O)NCc3ccccc3)O2)O1 (stereo not given in full)	1
C=C(CCCC)C(=O)CC[C@@H](OC(C)=O)c1cccc(OCCO)c1	-1
CC(=O)OC[C@H]1O[C@H](CCON=C[C@@H](C)[C@H](OCc2ccccc2)C(C)C)C=C[C@@H]1OC(C)=O	1

* * *

# composite z-score per entry
Test target: Torsin-1A-interacting protein 2 (Homo sapiens) (UniProt Q8NFQ8)
Sequence (Q8NFQ8 whole entry, looked up): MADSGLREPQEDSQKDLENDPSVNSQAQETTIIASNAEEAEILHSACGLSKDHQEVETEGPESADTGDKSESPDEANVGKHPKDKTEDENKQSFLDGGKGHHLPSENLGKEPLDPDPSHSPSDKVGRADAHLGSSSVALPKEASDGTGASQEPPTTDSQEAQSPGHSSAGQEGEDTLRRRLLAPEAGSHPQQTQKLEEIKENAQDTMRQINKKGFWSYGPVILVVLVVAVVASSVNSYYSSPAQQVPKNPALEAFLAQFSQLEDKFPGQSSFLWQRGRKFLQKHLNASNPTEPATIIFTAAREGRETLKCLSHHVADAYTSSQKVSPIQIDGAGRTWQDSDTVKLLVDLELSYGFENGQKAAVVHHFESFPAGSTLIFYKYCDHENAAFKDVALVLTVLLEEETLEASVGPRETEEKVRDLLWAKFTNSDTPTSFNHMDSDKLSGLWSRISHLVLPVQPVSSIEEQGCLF
Assay: LULL1 binders on small-molecule microarray, primary screen, cell lysate, human LULL1 lysate, 635/667 nm fluorescence (AID 1092);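 further: probe is lysate of COS7 cells overexpressing human LULL1; score merges per-feature 667 nm fluorescence with signal-to-noise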
Condition parameters: hLULL1 lysate binding, 635 nm fluorescence, higher = more signal

Compound	composite z-score
Cc1ccc(F)cc1S(=O)(=O)N[C@@H]1CCN(Cc2ccc(CC(C)C)cc2)C1	1.59
COc1ccc([Si](C)(C)[C@H]2[C@H](CCO)O[C@@]3(C(=O)N(Cc4cccc(NC(=O)[C@H](C)O)c4)c4ccccc43)[C@@H]2C)cc1	2.47
COc1cccc([C@H]2Oc3ccc(OC)cc3C(=NOC(C)CN3CCCc4nc(C)c(C)cc43)[C@@H]2O)c1 (stereo partly specified)	0.605
COC(=O)[C@@]1(Cc2ccc(OC)cc2)[C@H]2c3cc(C(=O)N4CCCC4)n(Cc4cc(F)c(F)c(F)c4)c3C[C@H]2CN1C(=O)c1ccccc1	3.39
CN(C)CCCNC(=O)[C@@H]1c2ccccc2C(=O)N(Cc2ccccc2)[C@H]1c1ccc(CO)cc1	0.282
C[C@@H](c1ccccc1)N1C(=O)[C@H]2[C@H]3[C@H](O)[C@H](O)CC(=NNC(=O)OCc4ccccc4)[C@H]3CC[C@H]2C1=O	0.71
CC(C)CON=C1[C@H]2CCn3c(=O)n(-c4ccccc4)c(=O)n3[C@H]2[C@H](O)[C@@H]2O[C@H]12	-0.381
CC(=O)OC[C@H]1O[C@H](CCON=C[C@@H](C)[C@H](OCc2ccccc2)C(C)C)C=C[C@@H]1OC(C)=O	-0.169
C=CCN1C(=O)[C@]2(O[C@H](CCn3cc(CCO)nn3)[C@@H]([Si](C)(C)c3ccc(OC)cc3)[C@@H]2C)c2cc(N3CCOC3=O)ccc21	2.79
CCOC(=O)C1=CC[C@H]2C(=O)N(CC)C(=O)[C@@H]12	1.08
COc1ccc(O[C@H]2C=C[C@@H](c3ccccc3)O[C@@H]2COC(=O)CCC(C)=NO[C@@H](C)c2cc(-c3c(C)cc(C)cc3C)no2)cc1	-0.687
Cc1cc2c(c(=O)o1)[C@H](O)[C@H]1O[C@H]1C2=O	-0.186
CCOC(=O)CCN1C(=O)[C@H]2[C@H]3[C@H](O)[C@H](O)CC(=O)[C@H]3CC[C@H]2C1=O	0.35
COC(=O)[C@H](C)NC(=O)CCC1CC(OC(=O)NCc2cccc3ccccc23)CC2(CCCC(COC(=O)NCC3CCCCC3)O2)O1 (stereo partly specified)	3.37
CC(CCC(=O)OC[C@H]1O[C@H](C#Cc2ccccc2)C=C[C@@H]1Oc1ccc(C)cc1)=NOC[C@@H](O)COCc1ccco1	-0.486
CCCCC(=C=CC[C@H](O)c1ccccc1OCCO)C[C@H](O)COCc1ccccc1	1.03
